target: human chorionic gonadotropin (hCG) heterodimer (Homo sapiens, UniProt P01215;P0DN86 P01215:25-116,P0DN86:21-165); experiment: filter; conditions: tags: Calbiochem or Vitro Diagnostics (14,000 IU/mg); chain copies: alpha/beta heterodimer (stated); label: 32P
Sequence (P01215 25-116, chain 1 of 2, other chains not shown): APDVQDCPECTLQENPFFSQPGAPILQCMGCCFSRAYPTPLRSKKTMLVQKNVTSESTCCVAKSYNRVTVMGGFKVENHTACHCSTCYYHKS
Please go through the items and note down their binding signal.
Provide a numeric answer, followed by its unit.

Complete the entry with binding signal for Class 1 ligand 4 (ssRNA, 2'-F all pyrimidines) RNA: GGGAGACAAGAAUAAACGCUCAAUUUGGAAGAUCCCGGAGUCUCGUUGGUGUUGAACGAUUCUUCGACAGGAGGCUCACAACAGGC
4.81 % bound at 100 nM

Complete the entry with binding signal for Class 1 ligand 18 (first SELEX) (ssRNA, 2'-F all pyrimidines) RNA: GGGAGACAAGAAUAAACGCUCAAUUUCGAAGAUCCCUGAGUCUCGUUGGUCGUUGAACGAUCCUUCGACAGGAGGCUCACAACAGGC
2.69 % bound at 100 nM

Complete the entry with binding signal for Class 1 ligand 5 (ssRNA, 2'-F all pyrimidines) RNA: GGGAGACAAGAAUAAACGCUCAAAUUGGAGUAUCCCUGAGUCUUGUUGGUCGUUGAACGGUCCUUCGACAGGAGGCUCACAACAGGC
1.26 % bound at 100 nM
